Source of measurements: PubChem BioAssay (NCI)

- Test system: SW-620 colon
- method: NCI tumour cell line growth inhibition, 48 h; in the data active = GI50 below about 0.43 µM; inactive = the rest
Entry note: the call must match one of class 1 (active), class 0 (inactive)

[[record]]
molecule = "COc1ccc(C2CC(c3ccc(OC)cc3O)=NN2c2ccc(S(N)(=O)=O)cc2)cc1 (stereo not given)"
measurement_target = "SW-620 colon"
label = "class 0"

[[record]]
molecule = "CC(=O)[CH-]C(C)=O.CC(=O)[CH-]C(C)=O.[Cl-].[O]=[V]"
measurement_target = "SW-620 colon"
label = "class 0"

[[record]]
molecule = "COc1cc2c(cc1O)c(=O)n(CCN(C)C)c1c3cc4c(cc3ncc21)OCO4"
measurement_target = "SW-620 colon"
label = "class 1"

[[record]]
molecule = "O=C(Nc1cccc(C(F)(F)F)c1)c1ccc(NC2=C(Cl)C(=O)N(Cc3ccccc3)C2=O)cc1"
measurement_target = "SW-620 colon"
label = "class 0"

[[record]]
molecule = "O=C1c2ccccc2C(=O)c2c1oc1c2c(=O)[nH]c2ccc(Cl)cc21"
measurement_target = "SW-620 colon"
label = "class 1"

[[record]]
molecule = "CCOC(=O)Nc1ccc2c(c1)C(=O)N(CC)c1ccccc1O2"
measurement_target = "SW-620 colon"
label = "class 1"


Entry "CC[C@H]1CCC/C=C/[C@@H]2C[C@H](O)C[C@H]2[C@H](O)/C=C/C(=O)O1" : call = ?
class 1

Each molecule tested received a call. Report the one for "O=C(Nc1ccccc1Cl)c1ccc(NC2=C(Cl)C(=O)N(C3CCCCC3)C2=O)cc1" .
class 0

State the result this test recorded for CCCCC(OC(=O)c1ccc(N)cc1)C(=O)Nc1nc(CC(=O)OCC)cs1 (stereo not given) .
class 0

Record lookup: outcome of this test for "COc1ccc(-c2cc(-c3ccc(OC)cc3)nc(NCCCNc3ccnc4cc(Cl)ccc34)n2)cc1" ?
class 0

* * *

- System: CCRF-CEM leukemia
- method: NCI tumour cell line growth inhibition, 48 h
Attribute: TGI

Guide cases for TGI, answers given:
[[record]]
compound = "CN(/N=C/c1ccc(Cl)c(Cl)c1)C1=NCCCCN1"
result = "83.5 µM"

[[record]]
compound = "CCc1cccc(C(C)CC)c1NC(=O)C(=O)Cc1nc2ccccc2o1 (stereo unspecified)"
result = "> 50 µM"

[[record]]
compound = "CC1(C)CCc2c(c(N=Nc3ccccc3F)c3ccccc3c2O)O1"
result = "> 100 µM"

[[record]]
compound = "CC(C)=Cc1cccc2[nH]c(O)c(N=Nc3ccc(S(N)(=O)=O)cc3)c12"
result = "> 25 µM"

[[record]]
compound = "CN(C)c1ccc(C2CC(=O)CC(c3ccc(N(C)C)cc3)C23C(=O)NC(=S)NC3=O)cc1 (stereo unspecified)"
result = "> 100 µM"

[[record]]
compound = "COc1cc2c(cc1O)c(=O)n(CCN(C)C)c1c3cc4c(cc3ncc21)OCO4"
result = "> 26.8 µM"


For the compound "C1=CCC[C@@H]2CN3CCCC/C=C\CCCC[C@H]4C[C@H](CN(CCCCCCCC1)C4)[C@H]2CC3" , what TGI is on record?
34.9 µM

So what does the record say about TGI for "COc1cc(NC(C)=O)ccc1C(=O)N/N=C/c1ccco1" ?
> 100 µM

* * *

- Tested on: OVCAR-3 ovarian
- method: NCI tumour cell line growth inhibition, 48 h
Catalogue of TGI readings, one per entry.

See these solved cases before continuing.
[[record]]
molecule = "[C-]#[N+]C(=C\\c1ccc(O)cc1)/C(=C/c1ccc(O)cc1)[N+]#[C-]"
result = "> 100 µM"

[[record]]
molecule = "N#Cc1ccccc1NC(=O)C(=O)C(C(=O)c1ccncc1)C1OC(=O)c2ccccc21 (stereo not given)"
result = "> 100 µM"

[[record]]
molecule = "O=C(O)CN1C(=O)CN=C(c2ccccn2)c2cc(Cl)ccc21"
result = "> 100 µM"


Item under review: "CC(C)(CCl)NC(=O)c1cccc(C(=O)NC(C)(C)CCl)n1" . Reported TGI?
> 100 µM

Which TGI is reported for this molecule? "CCOP(=O)(Nc1ccc(-c2ccc(N)cc2)cc1)OCC"
> 100 µM

Data request, read-out TGI, for "CCCCc1nc(C)oc1C(C)C"
> 100 µM
